experiment_notes: physchem
cond: 37 °C, water, thermodynamic from solid, naringenin solubility in water
measured_parameter: solubility (µM)
Give bare numbers, in µM.

## Task Look up solubility: `O=C1C[C@@H](c2ccc(O)cc2)Oc2cc(O)cc(O)c21`
## Result 40
